Consider the following compounds and their measured pIC50 readings.
Biological target: UniProtKB Q9NYK1
Assay: HEK Cell Assay (TLR7/NFKb HEK reporter cells, Steady-Glo)
Conditions: compound 30 min, then R*48 agonist 5 hours, Steady-Glo readout, read-out: Potency
pIC50: −log10 of the molar value.

{"columns": ["compound", "pIC50"],
 "data": [
  ["C[C@@H]1C[C@H](c2ccc(C#N)c3ncccc23)CN(C(=O)c2cc3n(n2)CCC3)C1 (relative stereo) [Compound 38]", "< 4.70"],
  ["C[C@@H]1C[C@@H](c2ccc(C(F)(F)F)c3ncccc23)CN(C(=O)Cn2cccn2)C1 (relative stereo) [Compound 15]", "< 4.70"],
  ["CC1CC(c2ccc(C(F)(F)F)c3ncccc23)CN(C(=O)CC2CCN(C)CC2)C1 (stereo not shown) [Compound 3]", "> 6.00"],
  ["COCCN[C@@H]1C[C@H](C)C[C@H](c2ccc(C(F)(F)F)c3nccnc23)C1 [Compound 147]", "< 4.70"],
  ["C[C@@H]1C[C@H](c2ccc(C#N)c3ncccc23)CN(CC(=O)NC2CCN(C)CC2)C1 (relative stereo) [Compound 68]", "4.70 to 6.00"],
  ["CC(C)N1CCC(CC(=O)N2C[C@@H](C)C[C@@H](c3ccc(C#N)c4ncccc34)C2)CC1 [Compound 47]", "4.70 to 6.00"],
  ["CC(C)[C@H](O)C(=O)N[C@H]1C[C@@H](C)C[C@@H](c2ccc(C#N)c3nccnc23)C1 [Compound 126]", "4.70 to 6.00"]
]}

====

Molecular target: TLR7 (Homo sapiens)
Assay: HEK Cell Assay (TLR7/NFKb HEK reporter cells, Steady-Glo)
Conditions: compound 30 min, then R*48 agonist 5 hours, Steady-Glo readout, read-out: Potency
Consider the following compounds and their measured IC50 readings.

{"columns": ["compound", "IC50"],
 "data": [
  ["C[C@H]1C[C@@H](NC(=O)CN2CCN(C)CC2)C[C@@H](c2ccc(C#N)c3nccnc23)C1 (racemic)", "< 1 µM"],
  ["C[C@H]1C[C@@H](c2ccc(C#N)c3nccnc23)CN(C(=O)CC2CCN(C)CC2)C1", "< 1 µM"],
  ["C[C@@H]1C[C@@H](c2ccc(C(F)(F)F)c3ncccc23)CN(C(=O)NC2CC2)C1 (relative stereo)", "1 to 20 µM"],
  ["CC1C[C@H](c2ccc(C#N)c3ncccc23)CN(C(=O)CCc2cccnc2)C1 (stereo partly shown)", "1 to 20 µM"],
  ["CC(=O)N1C[C@H](C)C[C@H](c2ccc(C(F)(F)F)c3ncccc23)C1 (relative stereo)", "> 20 µM"],
  ["C[C@H]1C[C@@H](N)C[C@@H](c2ccc(C(F)(F)F)c3ncccc23)C1", "1 to 20 µM"],
  ["C[C@@H]1C[C@H](c2ccc(C#N)c3ncccc23)CN(C(=O)CN2CCN(C)CC2)C1 (relative stereo) [Compound 29]", "< 1 µM"]
]}

====

Biological target: TLR7 (Homo sapiens, UniProt Q9NYK1)
Sequence (Q9NYK1 27-1049): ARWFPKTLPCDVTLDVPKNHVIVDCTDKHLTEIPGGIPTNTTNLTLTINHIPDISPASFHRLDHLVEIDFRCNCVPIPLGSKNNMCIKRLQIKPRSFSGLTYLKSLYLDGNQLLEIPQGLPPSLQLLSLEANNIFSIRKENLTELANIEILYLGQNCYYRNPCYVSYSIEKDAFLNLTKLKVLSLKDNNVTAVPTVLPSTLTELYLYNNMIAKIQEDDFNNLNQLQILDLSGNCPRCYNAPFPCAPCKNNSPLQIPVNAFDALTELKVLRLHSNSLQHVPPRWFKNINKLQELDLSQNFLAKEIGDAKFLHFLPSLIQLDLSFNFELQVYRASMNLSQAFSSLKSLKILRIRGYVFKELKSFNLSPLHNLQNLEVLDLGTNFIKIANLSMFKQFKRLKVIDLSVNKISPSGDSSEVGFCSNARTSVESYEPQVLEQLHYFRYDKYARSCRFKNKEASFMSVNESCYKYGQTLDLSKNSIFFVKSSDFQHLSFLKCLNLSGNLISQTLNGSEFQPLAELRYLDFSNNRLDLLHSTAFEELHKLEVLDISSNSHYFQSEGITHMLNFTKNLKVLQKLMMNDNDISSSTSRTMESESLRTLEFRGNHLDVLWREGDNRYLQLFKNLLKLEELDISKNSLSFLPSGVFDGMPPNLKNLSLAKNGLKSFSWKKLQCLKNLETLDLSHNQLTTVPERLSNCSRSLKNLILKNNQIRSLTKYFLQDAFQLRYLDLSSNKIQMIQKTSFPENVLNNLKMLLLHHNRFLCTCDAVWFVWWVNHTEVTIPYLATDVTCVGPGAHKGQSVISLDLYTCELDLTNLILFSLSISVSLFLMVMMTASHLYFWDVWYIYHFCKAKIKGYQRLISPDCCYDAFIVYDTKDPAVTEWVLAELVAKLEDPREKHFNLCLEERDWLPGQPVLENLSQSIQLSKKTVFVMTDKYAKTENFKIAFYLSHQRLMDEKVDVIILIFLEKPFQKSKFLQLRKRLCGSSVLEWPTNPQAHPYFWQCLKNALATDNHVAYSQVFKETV
Test: HEK Cell Assay (TLR7/NFKb HEK reporter cells, Steady-Glo)
Conditions: compound 30 min, then R*48 agonist 5 hours, Steady-Glo readout, read-out: Potency
Consider the following molecules and their measured IC50 readings.

{"columns": ["molecule", "targetDesc", "IC50"],
 "data": [
  ["Cc1ccc([C@@H]2C[C@@H](C)CN(C(=O)CC3CCN(C)CC3)C2)c2cccnc12 [Compound 80]", "TLR7 (Homo sapiens, UniProt Q9NYK1)", "< 1000 nM"],
  ["C[C@@H]1C[C@@H](c2ccc(C#N)c3ncccc23)CN(C(=O)[C@@H](N)C2CC2)C1 [Compound 60]", "TLR7 (Homo sapiens, UniProt Q9NYK1)", "1000 to 20000 nM"],
  ["CC(C)[C@H](O)C(=O)N[C@@H]1C[C@H](C)C[C@H](c2ccc(C#N)c3nccnc23)C1 [Compound 125]", "TLR7 (Homo sapiens, UniProt Q9NYK1)", "< 1000 nM"],
  ["C[C@@H]1C[C@@H](c2ccc(C(F)(F)F)c3ncccc23)CN(CCO)C1 (relative stereo) [Compound 8]", "TLR7 (Homo sapiens, UniProt Q9NYK1)", "> 20000 nM"],
  ["Cc1ccc([C@H]2C[C@H](C)CN(C(=O)CC3CCN(C)CC3)C2)c2cccnc12 [Compound 83]", "TLR7 (Homo sapiens, UniProt Q9NYK1)", "< 1000 nM"],
  ["CC1CC(c2ccc(Cl)c3ncccc23)CN(C(=O)CC2CCN(C)CC2)C1 (centres unmarked) [Compound 22]", "TLR7 (Homo sapiens, UniProt Q9NYK1)", "< 1000 nM"],
  ["COCCN[C@@H]1C[C@H](C)C[C@H](c2ccc(F)c3ncccc23)C1 [Compound 160]", "TLR7 (Homo sapiens, UniProt Q9NYK1)", "> 20000 nM"],
  ["C[C@H]1C[C@@H](NC(=O)CC2CC2(F)F)C[C@@H](c2ccc(C#N)c3nccnc23)C1 (mixture of isomers) [Compound 156]", "TLR7 (Homo sapiens, UniProt Q9NYK1)", "1000 to 20000 nM"]
]}
